target: MAPK14;MAPK11;MAPK12 (human) (UniProt Q16539); experiment: Inhibition of p38 Kinase Activity
Recorded IC50 for the following compounds
readout: IC50

> print(dat)
                                    compound  readout  reported.result
 1  CNCCN(C)c1nc(NCc2ccc(F)cc2F)nc(-n2cnc3ccccc32)n1     IC50       < 10000 nM
 2  Cc1ccc(C(N)=O)cc1Sc1nc(N(C)CC(C)(C)C)nc(N2CCCN(C)CC2)n1     IC50       < 30000 nM
 3  CC(CNc1nc(Nc2ccc3ncsc3c2)nc(N2CC3CC2CN3C(=O)c2ccco2)n1)c1ccccc1 (centres undefined)     IC50       < 10000 nM
 4  Cc1ccc(-c2n[nH]c(=O)[nH]2)cc1Nc1nc(N[C@@H]2CCNC2)nc(N(C)CC(C)(C)C)n1     IC50        < 1000 nM
 5  Cc1ccc(C(N)=O)cc1Nc1nc(N[C@H]2CN[C@@H](C)C2)nc(N(C)CC(C)(C)C)n1     IC50        < 1000 nM
 6  CCONC(=O)c1ccc(C)c(Nc2nc(NC)nc(N(C)CC(C)(C)C)n2)c1     IC50        < 1000 nM
 7  Cc1ccc(C(N)=O)cc1Nc1nc(N[C@H]2CCNC2)nc(N(C)CC(C)(C)C)n1     IC50        < 1000 nM
 8  CC(C)OCCNc1cc(N2CCNCC2)nc(-n2cnc3ccccc32)n1     IC50       < 10000 nM
 9  CCONC(=O)c1ccc(C)c(Nc2nc(NC)cc(N(C)CC(C)(C)C)n2)c1     IC50        < 1000 nM
10  CC(C)C(=O)N1CC2CC1CN2c1nc(NCC(C)c2ccccc2)nc(Nc2ccc3ncsc3c2)n1 (centres undefined)     IC50       < 10000 nM
11  Cc1ccc(C(N)=O)cc1Nc1nc(NC2CCCN(C(C)C)C2)nc(N(C)CC(C)C)n1 (centres undefined)     IC50        < 1000 nM
12  Cc1ccc(C(N)=O)cc1Nc1nc(NC2CCNC2)nc(N(C)CC(C)(C)C)n1 (centres undefined)     IC50        < 1000 nM
13  Cc1ccccc1CN1CC[C@H](Nc2nc(Nc3cc(C(N)=O)ccc3C)nc(N(C)CC(C)C)n2)C1     IC50        < 1000 nM
14  CONC(=O)c1ccc(C)c(Nc2nc(N)nc(N(C)CC(C)(C)C)n2)c1     IC50        < 1000 nM
15  Cc1ccc(C(N)=O)cc1Nc1nc(N[C@H]2CN[C@H](C)C2)nc(N(C)CC(C)(C)C)n1     IC50        < 1000 nM
16  Cc1ccc(C(N)=O)cc1Nc1nc(N[C@H]2CCNC2)nc(N(C)CC2CCCCC2)n1     IC50        < 1000 nM
17  Cc1ccc(C(N)=O)cc1Nc1nc(NCC(C)C)nc(N[C@H]2CCNC2)n1     IC50        < 1000 nM
18  Cc1cc(Cl)c(C(N)=O)cc1Nc1nc(N[C@H]2CCNC2)nc(N(C)CC(C)C)n1     IC50        < 1000 nM
19  COc1cccc(NC(=O)c2ccc(C)c(Nc3nc(N[C@H]4CCNC4)nc(N(C)CC(C)(C)C)n3)c2)c1     IC50        < 1000 nM

* * *

molecular target: MAPK14;MAPK11;MAPK12 (human) (UniProt Q16539); assay: Inhibition of p38 Kinase Activity
pIC50: −log10 of the molar value.
readout: pIC50

> print(dat)
                                    compound                                 tested.on  readout  reported.result
 1  CC(CNc1nc(Nc2ccc3ncsc3c2)nc(N2CC3CC2CN3C(=O)Cc2ccc(Cl)c(Cl)c2)n1)c1ccccc1 (stereo unspecified)  MAPK14;MAPK11;MAPK12 (human) (UniProt Q16539)    pIC50           > 5.00
 2  CC(C)C(=O)N1CCN(c2nc(NCC(C)c3ccccc3)nc(Nc3ccc4ncsc4c3)n2)CC1 (stereo unspecified)  MAPK14;MAPK11;MAPK12 (human) (UniProt Q16539)    pIC50           > 5.00
 3  CNC(=O)c1ccc(C)c(Nc2nc(NCC(C)(C)C)nc(N[C@H]3CCNC3)n2)c1  MAPK14;MAPK11;MAPK12 (human) (UniProt Q16539)    pIC50           > 6.00
 4  CCNC(=O)c1ccc(C)c(Nc2nc(N[C@H]3CCNC3)nc(N(C)CC(C)C)n2)c1  MAPK14;MAPK11;MAPK12 (human) (UniProt Q16539)    pIC50           > 6.00
 5  Cc1ccc(C(N)=O)cc1Nc1nc(N[C@@H]2CCN(C(C)C(C)C)C2)nc(N(C)CC(C)(C)C)n1 (stereo partly specified)  MAPK14;MAPK11;MAPK12 (human) (UniProt Q16539)    pIC50           > 6.00
 6  Cc1ccc(C(N)=O)cc1Nc1nc(N[C@H]2CCNC2)nc(N(C)C[C@@H]2CC[C@H]3C[C@H]2C3(C)C)n1  MAPK14;MAPK11;MAPK12 (human) (UniProt Q16539)    pIC50           > 6.00
 7  Cc1ccc(C(N)=O)cc1Sc1nc(NCc2ccccn2)nc(N(C)CC(C)(C)C)n1  MAPK14;MAPK11;MAPK12 (human) (UniProt Q16539)    pIC50           > 4.52
 8  Cc1ccc(-c2nn(C)c(=O)[nH]2)cc1Nc1nc(N(C)CC(C)(C)C)nc(N2CCCN(C)CC2)n1  MAPK14;MAPK11;MAPK12 (human) (UniProt Q16539)    pIC50           > 6.00
 9  CONC(=O)c1ccc(C)c(Nc2nc(NCCCn3ccnc3)nc(N(C)CC(C)(C)C)n2)c1  MAPK14;MAPK11;MAPK12 (human) (UniProt Q16539)    pIC50           > 6.00
10  CC(=O)N1CCN(c2nc(NCC(C)c3ccccc3)nc(Nc3ccc4ncsc4c3)n2)CC1 (stereo unspecified)  MAPK14;MAPK11;MAPK12 (human) (UniProt Q16539)    pIC50           > 5.00
11  CNCCN(C)c1nc(NC[C@@H]2CC[C@H]3C[C@@H]2C3(C)C)nc(Nc2ccc3ncsc3c2)n1  MAPK14;MAPK11;MAPK12 (human) (UniProt Q16539)    pIC50           > 5.00
12  CC(CNc1nc(Nc2ccc3ncsc3c2)nc(N(C)C)n1)c1ccc(Cl)cc1 (stereo unspecified)  MAPK14;MAPK11;MAPK12 (human) (UniProt Q16539)    pIC50           > 5.00
13  CONC(=O)c1ccc(C)c(Nc2nc(NCCc3ccccn3)nc(N(C)CC(C)(C)C)n2)c1  MAPK14;MAPK11;MAPK12 (human) (UniProt Q16539)    pIC50           > 6.00
14  CCONC(=O)c1ccc(C)c(Nc2cc(N(C)CC(C)(C)C)nc(N3CCCN(C)CC3)n2)c1  MAPK14;MAPK11;MAPK12 (human) (UniProt Q16539)    pIC50           > 6.00
15  Cc1ccc(C(N)=O)cc1Nc1nc(N[C@H]2CCN(Cc3ccncc3)C2)nc(N(C)CC(C)C)n1  MAPK14;MAPK11;MAPK12 (human) (UniProt Q16539)    pIC50           > 6.00
16  Cc1ccc(C(N)=O)cc1Nc1nc(NC2CCCCC2)nc(N(C)CC(C)(C)C)n1  MAPK14;MAPK11;MAPK12 (human) (UniProt Q16539)    pIC50           > 6.00
17  CONC(=O)c1ccc(C)c(Nc2nc(N[C@@H]3CCCNC3=O)nc(N(C)CC(C)(C)C)n2)c1  MAPK14;MAPK11;MAPK12 (human) (UniProt Q16539)    pIC50           > 6.00
18  COc1ccccc1CN1CC[C@@H](Nc2nc(Nc3cc(C(N)=O)ccc3C)nc(N(C)CC(C)C)n2)C1  MAPK14;MAPK11;MAPK12 (human) (UniProt Q16539)    pIC50           > 6.00
19  Cc1ccc(C(N)=O)cc1Nc1nc(NC2CCCC2)nc(N(CCO)Cc2ccccc2)n1  MAPK14;MAPK11;MAPK12 (human) (UniProt Q16539)    pIC50           > 6.00
20  CONC(=O)c1ccc(C)c(Nc2nc(NCCCN3CCCC3)nc(N(C)CC(C)(C)C)n2)c1  MAPK14;MAPK11;MAPK12 (human) (UniProt Q16539)    pIC50           > 6.00
21  Cc1cc2c(cc1Cl)C(=O)N2c1nc(N[C@H]2CCNC2)nc(N(C)CC(C)C)n1  MAPK14;MAPK11;MAPK12 (human) (UniProt Q16539)    pIC50           > 6.00
22     CC(C)OCCNc1cc(Cl)nc(-n2cnc3ccccc32)n1  MAPK14;MAPK11;MAPK12 (human) (UniProt Q16539)    pIC50           > 5.00
23  Cc1ccc(C(N)=O)cc1Nc1nc(NC2CCN(Cc3ccccc3)C2)nc(N(C)CC(C)C)n1 (stereo unspecified)  MAPK14;MAPK11;MAPK12 (human) (UniProt Q16539)    pIC50           > 6.00
24  CC(Cc1ccccc1)Nc1nc(Nc2ccc3ncsc3c2)nc(N(C)C)n1 (stereo unspecified)  MAPK14;MAPK11;MAPK12 (human) (UniProt Q16539)    pIC50           > 5.00
25  Cc1ccc(C(=O)Nc2ccccc2)cc1Nc1nc(N[C@H]2CCNC2)nc(N(C)CC(C)(C)C)n1  MAPK14;MAPK11;MAPK12 (human) (UniProt Q16539)    pIC50           > 6.00
26  CN(CCN(C)c1nc(NCc2ccc(F)cc2F)nc(-n2cnc3ccccc32)n1)C(=O)CCC(=O)O  MAPK14;MAPK11;MAPK12 (human) (UniProt Q16539)    pIC50           > 5.00
